The reported numbers originate from patent US20230312646A1.

Provide the recorded ΔG (kcal/mol) for the entries that follow.
system.tested: Escherichia coli SC (^EcSC) (Escherichia coli, UniProt P0A988)
Construct: His tag (inferred from the pET15b vector and Ni-NTA purification) (N); made in house; host or cells: E. coli
Sequence (P0A988 whole entry): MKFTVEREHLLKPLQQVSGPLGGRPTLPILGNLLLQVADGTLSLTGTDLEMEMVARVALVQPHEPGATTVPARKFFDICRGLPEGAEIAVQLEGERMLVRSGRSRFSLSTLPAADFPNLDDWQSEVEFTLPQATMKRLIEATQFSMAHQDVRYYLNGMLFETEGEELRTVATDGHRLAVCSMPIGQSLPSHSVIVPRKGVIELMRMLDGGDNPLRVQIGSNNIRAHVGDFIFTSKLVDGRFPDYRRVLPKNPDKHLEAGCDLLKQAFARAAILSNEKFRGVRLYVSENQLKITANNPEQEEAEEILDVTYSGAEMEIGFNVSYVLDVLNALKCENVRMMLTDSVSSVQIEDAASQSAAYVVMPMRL
measurement.description: biochemical
Format: binding
test.conditions: ITC at 298.15 K (25° C.)
Square brackets hold non-standard residues; d marks the D form. Peptide text beside a SMILES is read from it. * marks the point of attachment. Acryloyl(3-(3-pyridyl),E) = O=C(/C=C/c1cccnc1)*; tBuAla = CC(C)(C)C[C@H](N)C(=O)O; Cha = N[C@@H](CC1CCCCC1)C(=O)O; NMeD = CN[C@@H](CC(=O)O)C(=O)O

Using the record for CC(=O)N[C@@H](CCC(N)=O)C(=O)N[C@@H](CC1CCCCC1)C(=O)N(C)[C@@H](CC(=O)O)C(=O)N[C@@H](CC(C)C)C(=O)N[C@@H](Cc1ccccc1)C(=O)O [P4] (Ac-Q[Cha][NMeD]LF-OH) , report its ΔG (kcal/mol).
-9.5 (± 0.1) kcal/mol

Could you share which ΔG (kcal/mol) value was measured for CC(=O)N[C@@H](CCC(N)=O)C(=O)N[C@@H](CC1CCCCC1)C(=O)N[C@@H](CC(=O)O)C(=O)N[C@@H](CC(C)C)C(=O)NCC(=O)N[C@@H](CC(C)(C)C)C(=O)O [P28] (Ac-Q[Cha]DLG[tBuAla]-OH) ?
-7.60 (± 0.06) kcal/mol

// query ΔG (kcal/mol) value for entry CC(C)C[C@H](NC(=O)[C@H](CC(=O)O)NC(=O)[C@H](CC1CCCCC1)NC(=O)[C@H](CCC(N)=O)NC(=O)/C=C/c1cccnc1)C(=O)N[C@@H](Cc1ccccc1)C(=O)O [P16] ({Acryloyl(3-(3-pyridyl),E)}-Q[Cha]DLF-OH)
-9.3 (± 0.2) kcal/mol

What value of ΔG (kcal/mol) has been recorded for this entry: CC(=O)N[C@@H](CCC(N)=O)C(=O)N[C@@H](CC1CCCCC1)C(=O)N[C@H](C(=O)N[C@@H](CC(C)C)C(=O)N[C@@H](Cc1ccccc1)C(=O)O)[C@@H](C)O [Asp to Thr substitution] (Ac-Q[Cha]TLF-OH)
-9.2 (+/- 0.1) kcal/mol

----------
system.tested: Escherichia coli SC (^EcSC) (Escherichia coli, UniProt P0A988)
Construct: His tag (inferred from the pET15b vector and Ni-NTA purification) (N); made in house; host or cells: E. coli
measurement.description: biochemical
Type: binding
test.conditions: read-out: kon (M^-1.s^-1)
Description: The procedure has been described previously (Wolff, P.; Oliéric, V.; Briand, J. P.; Chaloin, O.; Dejaegere, A.; Dumas, P.; Ennifar, E.; Guichard, G.; Wagner, J.; Burnouf, D. Y., Structure-Based Design of Short Peptide Ligands Binding onto the E. coli Processivity Ring. J. Med. Chem. 2011, 54 (13), 4627-4637). […] Buffer exchange was performed on Centrikon 10 K at 4° C. before use and protein quality was assessed by DLS. […]
Square brackets hold non-standard residues; d marks the D form. Peptide text beside a SMILES is read from it. * marks the point of attachment. Caffeoyl = O=C(/C=C/c1ccc(O)c(O)c1)*; Cha = N[C@@H](CC1CCCCC1)C(=O)O; Phe(ol) = N[C@H](CO)Cc1ccccc1; X6 = O=C(/C=C/c1ccccc1)*
measured.metric: kon
State the value, then name its unit.

Look at this molecule and give its reported kon. CC(=O)N[C@@H](CCC(N)=O)C(=O)N[C@@H](CC1CCCCC1)C(=O)N[C@@H](CC(=O)O)C(=O)N[C@@H](CC(C)C)C(=O)N[C@H](CO)Cc1ccccc1 [P24] (Ac-Q[Cha]DL[Phe(ol)])
26000 M⁻¹ s⁻¹

Suppose we examine the molecule CC(C)C[C@H](NC(=O)[C@H](CC(=O)O)NC(=O)[C@H](CC1CCCCC1)NC(=O)[C@H](CCC(N)=O)NC(=O)/C=C/c1ccc(O)c(O)c1)C(=O)N[C@@H](Cc1ccccc1)C(=O)O [P21] (Caffeoyl-Q[Cha]DLF-OH) ; what kon value has been reported?
46000 M⁻¹ s⁻¹

Returns the measured kon for the input molecule. Input: CC(=O)N[C@@H](CCC(N)=O)C(=O)N[C@@H](CC1CCCCC1)C(=O)N[C@@H](CC(=O)O)C(=O)N[C@@H](CC(C)C)C(=O)NCC(=O)N[C@@H](CC(C)C)C(=O)O [P27] (Ac-Q[Cha]DLGL-OH)
26000 M⁻¹ s⁻¹

// returns reported kon for input CC(C)C[C@H](NC(=O)[C@H](CC(=O)O)NC(=O)[C@H](CC1CCCCC1)NC(=O)[C@H](CCC(N)=O)NC(=O)/C=C/c1ccccc1)C(=O)N[C@@H](Cc1ccccc1)C(=O)O [P17] (X6-Q[Cha]DLF-OH)
46000 M⁻¹ s⁻¹

Form field: reported kon of CC(=O)N[C@@H](CCC(N)=O)C(=O)N[C@@H](CC1CCCCC1)C(=O)N[C@@H](CC(=O)O)C(=O)N[C@@H](CC(C)C)C(=O)NCC(=O)N[C@@H](Cc1ccccc1)C(=O)O [P29] (Ac-Q[Cha]DLGF-OH)
32000 M⁻¹ s⁻¹

----------
system.tested: Escherichia coli SC (^EcSC) (Escherichia coli, UniProt P0A988)
Construct: His tag (inferred from the pET15b vector and Ni-NTA purification) (N); made in house; host or cells: E. coli
measurement.description: biochemical
Assay type: binding
test.conditions: affinities (Kd in nM), E.coli, ITC at 25° C.; means of three independant experiments, standard deviations in brackets
Square brackets hold non-standard residues; d marks the D form. Peptide text beside a SMILES is read from it. * marks the point of attachment. Acryloyl(3-(3-pyridyl),E) = O=C(/C=C/c1cccnc1)*; Phe(3,4-Cl2) = N[C@@H](Cc1ccc(Cl)c(Cl)c1)C(=O)O; Oic = O=C(O)[C@@H]1C[C@@H]2CCCC[C@@H]2N1; NMeR = CN[C@@H](CCCNC(=N)N)C(=O)O; Cha = N[C@@H](CC1CCCCC1)C(=O)O; NMeD = CN[C@@H](CC(=O)O)C(=O)O
measured.metric: Kd (nM)
Write down the numeric answer in nM and omit the unit.

Would you kindly share the measured Kd for CC(C)C[C@H](NC(=O)[C@H](CC(=O)O)N(C)C(=O)[C@H](CC1CCCCC1)NC(=O)[C@H](CCC(N)=O)NC(=O)/C=C/c1cccnc1)C(=O)N[C@@H](Cc1ccc(Cl)c(Cl)c1)C(=O)O [P38] ({Acryloyl(3-(3-pyridyl),E)}-Q[Cha][NMeD]L[Phe(3,4-Cl2)]-OH) ?
45

Any idea what its Kd is? The molecule is CC(=O)N[C@@H](CCC(N)=O)C(=O)N[C@@H](CC1CCCCC1)C(=O)N[C@@H](CC(=O)O)C(=O)N[C@@H](CC(C)C)C(=O)N[C@@H](Cc1ccccc1)C(=O)O [P1, Ac-Gln-Cha-Asp-Leu-Phe-OH, reference compound] (Ac-Q[Cha]DLF-OH)
170

For the molecule CC(=O)N[C@@H](CCC(N)=O)C(=O)N[C@@H](CC1CCCCC1)C(=O)N[C@@H](CC(=O)O)C(=O)N[C@@H](CC(C)C)C(=O)N1[C@H](C(=O)N[C@@H](Cc2ccc(Cl)c(Cl)c2)C(=O)O)C[C@@H]2CCCC[C@@H]21 [P50] (Ac-Q[Cha]DL[Oic][Phe(3,4-Cl2)]-OH) , what Kd is on record?
39

Could you tell me which Kd is on file for CC(=O)N(C)[C@@H](CCCNC(=N)N)C(=O)N[C@@H](CCC(N)=O)C(=O)N[C@@H](CC1CCCCC1)C(=O)N(C)[C@@H](CC(=O)O)C(=O)N[C@@H](CC(C)C)C(=O)N[C@@H](Cc1ccc(Cl)c(Cl)c1)C(=O)O [P37] (Ac-[NMeR]Q[Cha][NMeD]L[Phe(3,4-Cl2)]-OH) ?
74

----------
Assignment: determine reported Kd for the given molecules.
system.tested: Escherichia coli SC (^EcSC) (Escherichia coli, UniProt P0A988)
Construct: His tag (inferred from the pET15b vector and Ni-NTA purification) (N); made in house; host or cells: E. coli
measurement.description: biochemical
Type: binding
test.conditions: Kd (nM), ITC at 298.15 K (25° C.)
Numbered stars: 1 amine (or outer) side, 2 acyl side, 3 side chain; on linkers, the order of the positions; unused ones are H or OH. Square brackets hold non-standard residues; d marks the D form. Peptide text beside a SMILES is read from it. * marks the point of attachment. Acryloyl(3-(3-pyridyl),E) = O=C(/C=C/c1cccnc1)*; Phe(3,4-Cl2) = N[C@@H](Cc1ccc(Cl)c(Cl)c1)C(=O)O; NH(4-MeO-phenyl) = COc1ccc(N*)cc1; X4 = O=C([O-])[C@H](Cc1ccccc1)N*; Cha = N[C@@H](CC1CCCCC1)C(=O)O; NMeD = CN[C@@H](CC(=O)O)C(=O)O; X3 = CN(C)C(NCC(=O)*)=[N+](C)C; X6 = O=C(/C=C/c1ccccc1)*; CO = O=C([*:1])[*:2]; Sar = CNCC(=O)O
Reply with just the number (in nM).

What Kd value was documented for this molecule, CC(C)C[C@H](NC(=O)[C@H](CC(=O)O)N(C)C(=O)[C@H](CC1CCCCC1)NC(=O)[C@H](CCC(N)=O)NC(=O)/C=C/c1cccnc1)C(=O)N[C@@H](Cc1ccc(Cl)c(Cl)c1)C(=O)O [P38] ({Acryloyl(3-(3-pyridyl),E)}-Q[Cha][NMeD]L[Phe(3,4-Cl2)]-OH) ?
46

What measured Kd goes with CC(=O)N[C@@H](CCC(N)=O)C(=O)N[C@@H](CC1CCCCC1)C(=O)N[C@@H](CC(=O)O)C(=O)N[C@@H](CC(C)C)C(=O)NCC(=O)N[C@@H](CC(C)C)C(=O)O [P27] (Ac-Q[Cha]DLGL-OH) ?
682

Reported Kd for CC(C)C[C@H](NC(=O)[C@@H]1CCCN1C(=O)[C@H](CC(C)C)NC(=O)[C@H](CC(=O)O)NC(=O)[C@H](CC1CCCCC1)NC(=O)[C@H](CCC(N)=O)NC(=O)/C=C/c1ccccc1)C(=O)O [P43] (X6-Q[Cha]DLPL-OH) : what is it?
132

For the molecule shown here, COc1ccc(NC(=O)N[C@@H](CCC(N)=O)C(=O)N[C@@H](CC2CCCCC2)C(=O)N[C@@H](CC(=O)O)C(=O)N[C@@H](CC(C)C)C(=O)N[C@@H](Cc2ccccc2)C(=O)O)cc1 [P22] ({NH(4-MeO-phenyl)-CO}-Q[Cha]DLF-OH) , give the reported Kd.
73

I am curious: what Kd value has been reported for CC(C)C[C@H](NC(=O)[C@H](CC(=O)O)NC(=O)[C@H](CC1CCCCC1)NC(=O)[C@H](CCC(N)=O)NC(=O)CNC(N(C)C)=[N+](C)C)C(=O)N[C@@H](Cc1ccccc1)C(=O)[O-] [P15] (X3-Q[Cha]DL-X4) ?
353

Dear colleague, I am looking for the recorded Kd of the following molecule: CC(=O)N[C@@H](CCCNC(=N)N)C(=O)N[C@@H](CCC(N)=O)C(=O)N[C@@H](CC1CCCCC1)C(=O)N[C@@H](CC(=O)O)C(=O)N[C@@H](CC(C)C)C(=O)N[C@@H](Cc1ccccc1)C(=O)O [P12] (Ac-RQ[Cha]DLF-OH)
498

Which Kd value is on record for CC(=O)N[C@@H](CCC(N)=O)C(=O)N[C@@H](CC1CCCCC1)C(=O)N[C@@H](CC(=O)O)C(=O)N[C@@H](CC(C)C)C(=O)N(C)CC(=O)N[C@@H](CC(C)C)C(=O)O [P30] (Ac-Q[Cha]DL[Sar]L-OH) ?
583

Using the record for CC(C)C[C@H](NC(=O)[C@H](CC(=O)O)NC(=O)[C@H](CC1CCCCC1)NC(=O)[C@H](CCC(N)=O)NC(=O)/C=C/c1ccccc1)C(=O)N[C@@H](Cc1ccccc1)C(=O)O [P17] (X6-Q[Cha]DLF-OH) , report its Kd.
129
